System: RAW264.7
protocolDescription: Cytotoxicity against mouse RAW264.7 cells after 24 hrs by MTT assay
Type: cell-based
conditionNotes: raw264.7, 24 h
quantity: Activity

Guide cases for Activity, answers given:
compound	Activity
C=C1C(=O)O[C@H]2C[C@@H](C)[C@@H]3[C@H](OC)CC(=O)[C@@]3(C)[C@@H](O)[C@H]12	Non-toxic
C=C1C(=O)O[C@H]2CC(=C)[C@H]3CC[C@@](C)(O)[C@@H]3C[C@H]12 [INUVISCOLIDE]	Non-toxic
C=C1C(=O)O[C@H]2C[C@@H](C)[C@@H]3C=CC(=O)[C@@]3(C)[C@@H](OC(C)=O)[C@H]12	Non-toxic
C=C1C(=O)O[C@@H]2C[C@H](C)[C@@H]3CCC(=O)[C@@]3(C)C[C@H]12	Non-toxic

# ---- query compound ----
**Q:** What does the record list as Activity for `C=C1C(=O)O[C@H]2C[C@@H](COC(C)=O)[C@@H]3CCC(=O)[C@@]3(C)C[C@H]12` ?
**A:** Non-toxic
